Molecular target: UniProt:Q6PJP8
Sequence (Q6PJP8 676-1040): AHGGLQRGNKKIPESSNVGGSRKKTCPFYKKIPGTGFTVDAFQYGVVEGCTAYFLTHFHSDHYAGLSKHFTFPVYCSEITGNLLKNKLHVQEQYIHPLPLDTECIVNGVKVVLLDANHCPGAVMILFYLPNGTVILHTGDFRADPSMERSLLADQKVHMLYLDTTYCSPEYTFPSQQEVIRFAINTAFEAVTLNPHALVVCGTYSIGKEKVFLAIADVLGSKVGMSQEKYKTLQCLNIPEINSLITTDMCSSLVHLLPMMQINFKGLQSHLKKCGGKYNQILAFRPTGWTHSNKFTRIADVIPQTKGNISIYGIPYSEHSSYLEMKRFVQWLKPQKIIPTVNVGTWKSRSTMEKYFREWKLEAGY
Assay: gel-based nuclease assay, SNM1A
Type: biochemical
Design: DNA encoding for the MBL and β-CASP domains of SNM1A (aa 676–1040) was cloned into the baculovirus transfer vector pFB-LIC-Bse; inferred from vector pFB-LIC-Bse and the IMAC purification; made in house; host or cells: Sf9 insect cells (baculovirus)
Conditions: Suppl. Figure 11C; three independent experiments; read-out: SNM1A IC50 estimated from densitometric analysis of gel based assays
ATTRIBUTE_MEASURED: pIC50
Please report pIC50 as the negative decimal logarithm of the molar concentration, giving only the number.

Form field pIC50, entry C[C@H](Nc1nc(NCc2ccco2)nc2ccc(Cl)cc12)C(=O)NO : 5.12

---

Target: UniProt Q6PJP8
Sequence (Q6PJP8 676-1040): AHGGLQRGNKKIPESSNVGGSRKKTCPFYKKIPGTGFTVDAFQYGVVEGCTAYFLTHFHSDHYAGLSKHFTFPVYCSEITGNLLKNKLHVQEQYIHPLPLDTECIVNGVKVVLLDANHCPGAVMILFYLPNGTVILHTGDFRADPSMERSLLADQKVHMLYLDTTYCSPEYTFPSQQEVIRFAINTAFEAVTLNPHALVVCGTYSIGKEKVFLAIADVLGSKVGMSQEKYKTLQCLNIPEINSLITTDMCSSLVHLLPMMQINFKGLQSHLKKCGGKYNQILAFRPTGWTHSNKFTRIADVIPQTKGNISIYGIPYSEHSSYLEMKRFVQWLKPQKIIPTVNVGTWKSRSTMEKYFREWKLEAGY
Assay: real-time fluorescence-based nuclease assay, SNM1A
Assay type: biochemical
Set-up: DNA encoding for the MBL and β-CASP domains of SNM1A (aa 676–1040) was cloned into the baculovirus transfer vector pFB-LIC-Bse; inferred from vector pFB-LIC-Bse and the IMAC purification; made in house; host or cells: Sf9 insect cells (baculovirus)
Details: real-time fluorescence-based nuclease assay; resynthesised compounds; read-out: SNM1A IC50
# reported IC50; entries follow
# number only, unit µM dropped from output

INSERT INTO assay_data (compound, attribute_measured, display_unit, reported_result) VALUES
  ('CCOc1nc(N[C@@H](C)C(=O)NO)c2cc(Cl)ccc2n1 [compound 21]', 'IC50', 'µM', 67),
  ('CCCN(C)c1nc(N[C@@H](C)C(=O)NO)c2cc(Cl)ccc2n1 [compound 17]', 'IC50', 'µM', 20),
  ('COc1ccc2c3c(cccc13)C(=O)N(O)C2=O [compound 1]', 'IC50', 'µM', 2.4);

Next item in the queue.
Form field IC50, entry O=c1[nH]c2cnc3ccc(Cl)cc3c2[nH]c1=O [compound 2] : 2
